Measured %Inh by item
# System: GRK2
# Construct: gene ADRBK1
# condition-notes: concentration: 1 μM, replicates: in singlicate; n = 1;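 further: KINOMEscan kinase panel screen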
Numeric only. Scale: %

// known answers, use as guide
O=C(Nc1cccc(Oc2ccc3nc(NC(=O)C4CC4)cn3n2)c1)c1ccccc1C(F)(F)F = 0
CCn1c(-c2nonc2N)nc2c(C#CC(C)(C)O)ncc(OCCCCN)c21.O=C(O)C(F)(F)F.O=C(O)C(F)(F)F = 0
O=c1[nH]cc(-c2ccc(N3CCOCC3)cc2)c2sc(-c3cn[nH]c3)cc12 = 9

Reported %Inh ( O=C(Nc1cccc(-c2nn3ccccc3c2-c2ccnc(Nc3cccc(C(F)(F)F)c3)n2)c1)c1c(F)cccc1F ) = 0

For reference, reported %Inh for CN(C)Cc1ccc(-c2ccc3c(Nc4ccc(Oc5ccccn5)cc4)ccnc3c2)o1 stands at 0

Noted for Nc1ncnc2c1nc(-c1ccccc1)n2-c1ccccc1 : its %Inh reads 0

====

# Tested on: ICK
# condition-notes: concentration: 1 μM, replicates: in singlicate; n = 1
readout-name: %Inh (%)
Entry rule: numbers only, all in %.

O=C(Nc1cccc(-c2nn3ccccc3c2-c2ccnc(Nc3cccc(F)c3)n2)c1)c1c(F)ccc(F)c1Cl [GSK357952] = 3
C[C@@H]1CC[C@@H](C(=O)Nc2ccccc2)CN1c1cc(-c2ccc3c(N)n[nH]c3c2)nc(N)n1 [GSK2286062] = 0
Nc1n[nH]c2cnc(-c3ccccc3)cc12 [SB-642124] = 26
COCCOCCOc1cc2ncc3c4ccc(C#N)cc4[nH]c3c2cc1OC = 41
CNC(=O)c1ccccc1Nc1nc(Nc2ccc(N3CCOCC3)cc2)ncc1Cl.Cl [GSK1576028] = 57
NCCCC(NC(=O)c1cc(Br)c(-c2ccnc3[nH]ccc23)s1)c1ccccc1.O=C(O)C(F)(F)F.O=C(O)C(F)(F)F (stereo not shown) [GSK1287544] = 23
CN(c1ccc(NC(=O)Nc2cc(C(F)(F)F)ccc2F)cc1)c1ccnc(Nc2ccc(S(N)(=O)=O)cc2)n1 [GW809893] = 21
Fc1ccc(-c2ncn(C3CCNCC3)c2-c2ccnc(Oc3ccc(-c4ccccc4)cc3)n2)cc1 [SB-245391] = 25

%Inh reading for c1ccc(-c2cnc3nccnn23)cc1 [AH20685] : 0

Form field %Inh, entry CSc1cccc2c(-c3ccncn3)c(-c3ccc(F)cc3)nn12 [GW514786] : 0

====

# Tested on: JAK2(JH1domain-catalytic)
# condition-notes: concentration: 1 μM, replicates: in singlicate; n = 1
Some compounds, each annotated with its measured %Inh.
Numeric answer only, unit % assumed.

Take a look at these entries with their results.
COc1cc2c(cc1OCCN1CCNCC1)ncc1c3ccc(C#N)cc3[nH]c21 = 64
CSc1cccc2c(-c3ccncn3)c(-c3ccc(F)cc3)nn12 = 9
COc1cc(Nc2nccc(-c3c(-c4cccc(NC(=O)c5c(F)cccc5F)c4)nn4ncccc34)n2)cc(OC)c1OC = 6
O=C(Nc1cccc(Oc2ccc3nc(NC(=O)C4CC4)cn3n2)c1)c1ccccc1C(F)(F)F = 43
COc1cccc(-c2ccc3c(NC(=O)C4CC4)n[nH]c3n2)c1 = 17

Please look at the following compound next.
Query Cc1cccc(Nc2nc(N[C@H]3CCNC3)ncc2C(N)=O)c1.Cl yields %Inh of 58

Hello, the source for this data is paper PMC5540273, in case you need it.
